- experiment: qHTS of pediatric cancer cell lines to identify multiple opportunities for drug repurposing: Primary screen for A673 cells (AID 1347092); also: nearly all actives have a fitted effect of over 45% in size
- cond: A673 Ewing sarcoma viability, CellTiter-Glo ATP luminescence, 48 h; series mostly up to 46 µM
Results filed as inconclusive are left out. Activity calls are given as the source filed them. Calls follow the shape of the dose curve; as a rule, active = well fitted cell-killing curve with a large enough effect; inconclusive = small, poorly fitted or top-dose-only effect; inactive = no such curve, though single readings can be large or run the other way.
Outcomes: active, inactive

[[record]]
molecule = "CC1(C)NC(=O)N(c2ccc([N+](=O)[O-])c(C(F)(F)F)c2)C1=O"
labelvalue = "inactive"

[[record]]
molecule = "O=C(O)c1cc(=O)c2c(OCC(O)COc3cccc4oc(C(=O)O)cc(=O)c34)cccc2o1"
labelvalue = "inactive"

[[record]]
molecule = "Cc1nc2n(c(=O)c1CCN1CCC(c3noc4cc(F)ccc34)CC1)CCCC2"
labelvalue = "inactive"

[[record]]
molecule = "NC(=O)Cc1cccc(C(=O)c2ccccc2)c1N"
labelvalue = "inactive"

[[record]]
molecule = "S=c1nc[nH]c2nc[nH]c12"
labelvalue = "active"

[[record]]
molecule = "Cc1cc(C2CCCCC2)n(O)c(=O)c1"
labelvalue = "active"

[[record]]
molecule = "Oc1ccc2ccccc2c1SSc1c(O)ccc2ccccc12"
labelvalue = "active"

[[record]]
molecule = "O=C(OC1C[C@H]2CC[C@@H](C1)[N+]21CCCC1)C(O)(c1ccccc1)c1ccccc1 (stereo not given in full)"
labelvalue = "inactive"

[[record]]
molecule = "CN(C)CCCC1(c2ccc(F)cc2)OCc2cc(C#N)ccc21 (stereo not given)"
labelvalue = "active"

[[record]]
molecule = "O=Nc1c(-c2c(O)[nH]c3cc(Br)ccc23)[nH]c2ccccc12"
labelvalue = "active"

